Biological target: Cbl-b (Homo sapiens, UniProt Q13191)
Sequence (Q13191 36-427): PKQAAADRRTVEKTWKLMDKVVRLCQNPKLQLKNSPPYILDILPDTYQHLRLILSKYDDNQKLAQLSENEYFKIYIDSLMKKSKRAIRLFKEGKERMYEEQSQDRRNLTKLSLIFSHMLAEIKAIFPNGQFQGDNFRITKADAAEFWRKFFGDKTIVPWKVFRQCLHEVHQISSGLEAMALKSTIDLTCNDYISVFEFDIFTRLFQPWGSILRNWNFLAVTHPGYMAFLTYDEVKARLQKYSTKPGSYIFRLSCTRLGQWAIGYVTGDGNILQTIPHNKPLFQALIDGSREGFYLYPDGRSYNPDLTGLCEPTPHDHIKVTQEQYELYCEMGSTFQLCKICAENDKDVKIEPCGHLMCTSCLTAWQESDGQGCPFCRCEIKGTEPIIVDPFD
Assay: Cbl-b activity assay (Cbl-b inhibition assay), TR-FRET of Cbl-b interaction with UbcH5B-Ub
Assay type: biochemical
Details: assay buffer with 100 mM NaCl, 60 nM Src kinase; read-out: Cbl-b activity IC50
Reported values of IC50 for individual entries

Sample answers from the record:
C[C@H](Sc1nncn1C)c1cccc(NC(=O)c2cc(C(=O)N3CC[C@@H](O)C3)ccn2)c1    3 to 10 µM
C[C@@H](c1cccc(N2Cc3c(cccc3C(F)(F)F)C2=O)c1)[C@H](F)c1nncn1C (racemic) [Compound 473]    0.301 to 1 µM
C[C@H](Cc1nncn1C)c1cccc(NC(=O)c2cc(C(=O)N3CCNCC3)ccn2)c1    3 to 10 µM

Lab note: next compound to report on.
Need IC50, item Cn1cnnc1CC1(c2cccc(N3Cc4c(cc(CN5CC[C@@H](F)[C@@H](F)C5)cc4C(F)(F)F)C3=O)c2)COC1 (relative stereo)
< 0.1 µM
